Taken from ChEMBL document CHEMBL3045178.

Please respond with reported MIC for every item in the list.
System: Fusarium oxysporum f. sp. vasinfectum
TEST_PROTOCOL: Antifungal activity against Fusarium oxysporum f. sp. vasinfectum at 28 degC after 48 hr microbroth dilution method
Assay type: functional
Give your result in µg/mL as a bare value.

## Task Dear colleague, I am looking for the recorded MIC of the following compound: C[C@@H]1N[C@H]2N(C1=O)c1ccccc1[C@@]2(O)C[C@@H]1C(=O)N[C@@H](C)c2nc3ccccc3c(=O)n21
## Result 50

## Task C[C@H]1C(=O)N2c3ccccc3[C@@]3(O)C[C@@H]4C(=O)N[C@](C)(c5nc6ccccc6c(=O)n54)N1[C@@H]23 , same question.
## Result 50

## Task Also COc1ccc2c3c([nH]c2c1)[C@H](C=C(C)C)N1C(=O)[C@@H]2CCCN2C(=O)[C@@H]1C3 ?
## Result 50
